Molecular target: T1, human GITR (amino acids M1-V241, NCBI Accession #NP_004186.1) expressed on cells (human, UniProt Q9Y5U5 26-241)
T1 sequence: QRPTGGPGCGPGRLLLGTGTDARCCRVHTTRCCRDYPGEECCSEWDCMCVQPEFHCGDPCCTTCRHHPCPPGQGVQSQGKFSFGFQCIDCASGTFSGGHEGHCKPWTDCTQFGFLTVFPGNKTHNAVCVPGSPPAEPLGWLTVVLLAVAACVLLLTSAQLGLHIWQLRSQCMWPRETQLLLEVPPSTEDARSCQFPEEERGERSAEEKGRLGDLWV
Assay: cell-based or functional assay
Consider the following binders and their measured fold activation, T-cell proliferation, 33 nM, FcgR anchored, donor 4 readings.
Answer format: numeric, fold implied, no suffix.

binder	endpointUnit	dataValue
H4H14528P (antibody, human IgG4, V domains shown, human IgG4 (H4H)) VH: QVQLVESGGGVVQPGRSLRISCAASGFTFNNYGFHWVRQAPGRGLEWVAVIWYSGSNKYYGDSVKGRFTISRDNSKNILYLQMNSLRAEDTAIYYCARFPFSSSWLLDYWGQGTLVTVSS VL: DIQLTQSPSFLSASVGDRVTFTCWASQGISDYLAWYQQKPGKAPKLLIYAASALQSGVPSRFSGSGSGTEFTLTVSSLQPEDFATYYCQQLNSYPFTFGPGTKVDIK	fold	1.9
H4H14470P (antibody, human IgG4, V domains shown, human IgG4 (H4H)) VH: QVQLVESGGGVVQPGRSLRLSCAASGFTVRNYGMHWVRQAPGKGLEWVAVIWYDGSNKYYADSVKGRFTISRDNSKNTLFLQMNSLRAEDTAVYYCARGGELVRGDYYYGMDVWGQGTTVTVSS VL: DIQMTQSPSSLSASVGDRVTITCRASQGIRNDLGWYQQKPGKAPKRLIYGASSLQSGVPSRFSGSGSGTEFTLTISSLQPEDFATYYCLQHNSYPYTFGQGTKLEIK	fold	1.5
H4H14516P (antibody, human IgG4, V domains shown, human IgG4 (H4H)) VH: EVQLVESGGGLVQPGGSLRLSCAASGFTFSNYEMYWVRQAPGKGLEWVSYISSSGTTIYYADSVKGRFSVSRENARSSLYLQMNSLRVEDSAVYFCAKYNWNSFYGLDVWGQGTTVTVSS VL: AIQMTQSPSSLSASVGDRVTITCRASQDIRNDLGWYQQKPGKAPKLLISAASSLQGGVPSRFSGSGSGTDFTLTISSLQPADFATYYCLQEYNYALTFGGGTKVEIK	fold	1.3
H4H14525P (antibody, human IgG4, V domains shown, human IgG4 (H4H)) VH: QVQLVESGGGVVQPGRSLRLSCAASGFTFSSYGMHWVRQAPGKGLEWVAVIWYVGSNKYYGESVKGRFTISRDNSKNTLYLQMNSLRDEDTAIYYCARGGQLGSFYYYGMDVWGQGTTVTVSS VL: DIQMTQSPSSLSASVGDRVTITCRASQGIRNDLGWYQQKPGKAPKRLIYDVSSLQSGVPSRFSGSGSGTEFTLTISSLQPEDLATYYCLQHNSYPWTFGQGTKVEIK	fold	1.5

Would you kindly look at the next entry?
Inquiry: Read the entry H4H14521P (antibody, human IgG4, V domains shown, human IgG4 (H4H)) VH: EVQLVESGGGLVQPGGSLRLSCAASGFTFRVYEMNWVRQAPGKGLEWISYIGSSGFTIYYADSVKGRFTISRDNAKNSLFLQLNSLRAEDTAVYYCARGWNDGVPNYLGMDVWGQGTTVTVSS VL: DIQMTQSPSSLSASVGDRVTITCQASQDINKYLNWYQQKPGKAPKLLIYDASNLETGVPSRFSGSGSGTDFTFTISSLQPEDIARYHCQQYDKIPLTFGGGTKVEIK and write its reported fold activation, T-cell proliferation, 33 nM, FcgR anchored, donor 4.
Reply text: 1.7

FYI, the data here is from patent US20170355774A1.
